subjectOfTest: human Keap1 Kelch domain (A321-T609) (Homo sapiens, UniProt Q14145)
Construct: human Keap1 Kelch domain (A321-T609) fused with N-terminal 6x His-tag; 6xHis (N); made in house
Sequence (Q14145 321-609): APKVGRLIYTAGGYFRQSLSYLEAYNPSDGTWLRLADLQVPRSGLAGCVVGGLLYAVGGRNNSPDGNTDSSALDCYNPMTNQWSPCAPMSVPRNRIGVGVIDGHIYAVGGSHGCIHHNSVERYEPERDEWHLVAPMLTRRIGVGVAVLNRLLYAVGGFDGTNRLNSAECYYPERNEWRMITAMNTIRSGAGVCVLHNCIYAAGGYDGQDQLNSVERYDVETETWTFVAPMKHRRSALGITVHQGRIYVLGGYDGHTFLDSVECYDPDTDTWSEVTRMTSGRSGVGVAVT
assayText: Surface plasmon resonance (SPR) direct binding assay, immobilised Keap1 Kelch domain
condition: Table 1; geometric mean ± sd of at least 3 independent repeats unless stated; 20°C
*1 amine or outer side, *2 acyl side, *3 side chain or, on linkers, in order; H or OH if unused. Where a SMILES comes first, the peptide text is derived from it. Bridges are numbered along the chain shown (N, C = ends). X1 = CN(CC(=O)O)c1nc(CC[*:1])cc(CC[*:2])n1; CH2COCH2 = O=C(C[*:1])C[*:2]
Reported Kd values for the following compounds.

In: Provide Kd, system human Keap1 Kelch domain (A321-T609) (Homo sapiens, UniProt Q14145), entry CC(=O)N[C@H]1CSCCc2cc(nc(N(C)CC(=O)O)n2)CCSC[C@@H](C(=O)N[C@@H](CC(C)C)C(N)=O)NC(=O)[C@H](CCC(=O)O)NC(=O)CNC(=O)[C@H]([C@@H](C)O)NC(=O)[C@H](CCC(=O)O)NC(=O)[C@@H]2CCCN2C(=O)[C@H](CC(=O)O)NC(=O)[C@H](CC(C)C)NC(=O)[C@H](CCC(N)=O)NC(=O)[C@H](CC(C)C)NC1=O [Peptide P3-D] (Ac-CLQLDPETGECL-NH2; linker 1-11 via X1)
Out: 22 nM

In: Provide Kd, system human Keap1 Kelch domain (A321-T609) (Homo sapiens, UniProt Q14145), entry CC(=O)N[C@@H](CC(C)C)C(=O)N[C@@H](CCC(N)=O)C(=O)N[C@H]1CSCCc2cc(nc(N(C)CC(=O)O)n2)CCSC[C@@H](C(=O)N[C@@H](CC(C)C)C(N)=O)NC(=O)[C@H](CCC(=O)O)NC(=O)CNC(=O)[C@H]([C@@H](C)O)NC(=O)[C@H](CCC(=O)O)NC(=O)[C@@H]2CCCN2C(=O)[C@H](CC(=O)O)NC1=O [Peptide P2-D] (Ac-LQCDPETGECL-NH2; linker 3-10 via X1)
Out: 54 nM

In: Provide Kd, system human Keap1 Kelch domain (A321-T609) (Homo sapiens, UniProt Q14145), entry CC(=O)N[C@H]1CSCCc2cc(nc(N(C)CC(=O)O)n2)CCSC[C@@H](C(=O)N[C@@H](CC(C)C)C(N)=O)NC(=O)[C@H](CCC(=O)O)NC(=O)CNC(=O)[C@H]([C@@H](C)O)NC(=O)[C@H](CCC(=O)O)NC(=O)[C@@H]2CCCN2C(=O)[C@H](CC(=O)O)NC(=O)[C@H](CC(C)C)NC(=O)[C@H](CCC(N)=O)NC1=O [Peptide P1-D] (Ac-CQLDPETGECL-NH2; linker 1-10 via X1)
Out: 25 nM

In: Provide Kd, system human Keap1 Kelch domain (A321-T609) (Homo sapiens, UniProt Q14145), entry CC(=O)N[C@@H](CC(C)C)C(=O)N[C@@H](CCC(N)=O)C(=O)N[C@H]1CSCC(=O)CSC[C@@H](C(=O)N[C@@H](CC(C)C)C(N)=O)NC(=O)[C@H](CCC(=O)O)NC(=O)CNC(=O)[C@H]([C@@H](C)O)NC(=O)[C@H](CCC(=O)O)NC(=O)[C@@H]2CCCN2C(=O)[C@H](CC(=O)O)NC1=O [Peptide P2-B] (Ac-LQCDPETGECL-NH2; linker 3-10 via CH2COCH2)
Out: 97 nM
